These entries and their values trace back to the supplement of paper PMC7017272.

Test system: UT-SCC-106A
Test Description: drug sensitivity score (DSS); higher = more sensitive; extreme values may be limits of the assay
Measurement Conditions: culture condition: embedded in Matrigel; treatment time: 3 days
Outcome Measure: drug sensitivity score (DSS)
Give the quantity in DSS, number only.

Worked examples, 5 compounds total:
Cn1c(=O)n(-c2ccc(C(C)(C)C#N)cc2)c2c3cc(-c4cnc5ccccc5c4)ccc3ncc21 [Dactolisib] ... 0
COc1cc(F)c(F)c(Nc2ccc(I)cc2F)c1NS(=O)(=O)C1(C[C@H](O)CO)CC1 [Refametinib] ... 17.8
CO[C@H]1C[C@@H]2CC[C@@H](C)[C@@](O)(O2)C(=O)C(=O)N2CCCC[C@H]2C(=O)O[C@H]([C@H](C)C[C@@H]2CC[C@@H](OC(=O)C(C)(CO)CO)[C@H](OC)C2)CC(=O)[C@H](C)/C=C(\C)[C@@H](O)[C@@H](OC)C(=O)[C@H](C)C[C@H](C)/C=C/C=C/C=C/1C [Temsirolimus] ... 6.03
Cn1cnc2c(F)c(Nc3ccc(Br)cc3Cl)c(C(=O)NOCCO)cc21 [Selumetinib] ... 14.6
Cn1c(=O)c(F)c(Nc2ccc(I)cc2F)c2c(=O)n(C[C@@H](O)CO)cnc21 [TAK-733] ... 16.8

Entry under review: CO[C@H]1C[C@@H]2CC[C@@H](C)[C@@](O)(O2)C(=O)C(=O)N2CCCC[C@H]2C(=O)O[C@H]([C@H](C)C[C@@H]2CC[C@@H](O)[C@H](OC)C2)CC(=O)[C@H](C)/C=C(\C)[C@@H](O)[C@@H](OC)C(=O)[C@H](C)C[C@H](C)/C=C/C=C/C=C/1C [Sirolimus] . Reported drug sensitivity score?
4.7

---

Test system: UT-SCC-8
Test Description: drug sensitivity score (DSS); higher = more sensitive; extreme values may be limits of the assay
Measurement Conditions: culture condition: embedded in Myogel + collagen I; treatment time: 3 days
Examples of compounds with documented drug sensitivity score follow.

# annotated cases, reported drug sensitivity score shown
CO[C@H]1C[C@@H]2CC[C@@H](C)[C@@](O)(O2)C(=O)C(=O)N2CCCC[C@H]2C(=O)O[C@H]([C@H](C)C[C@@H]2CC[C@@H](OP(C)(C)=O)[C@H](OC)C2)CC(=O)[C@H](C)/C=C(\C)[C@@H](O)[C@@H](OC)C(=O)[C@H](C)C[C@H](C)/C=C/C=C/C=C/1C ... 4.03 DSS
CO[C@H]1C[C@@H]2CC[C@@H](C)[C@@](O)(O2)C(=O)C(=O)N2CCCC[C@H]2C(=O)O[C@H]([C@H](C)C[C@@H]2CC[C@@H](OC(=O)C(C)(CO)CO)[C@H](OC)C2)CC(=O)[C@H](C)/C=C(\C)[C@@H](O)[C@@H](OC)C(=O)[C@H](C)C[C@H](C)/C=C/C=C/C=C/1C ... 4.53 DSS
CO[C@H]1C[C@@H]2CC[C@@H](C)[C@@](O)(O2)C(=O)C(=O)N2CCCC[C@H]2C(=O)O[C@H]([C@H](C)C[C@@H]2CC[C@@H](OCCO)[C@H](OC)C2)CC(=O)[C@H](C)/C=C(\C)[C@@H](O)[C@@H](OC)C(=O)[C@H](C)C[C@H](C)/C=C/C=C/C=C/1C ... 4.2 DSS

Next compound, drug sensitivity score to be filled in.
Item under review: COc1ccc(-c2cc3c(C)nc(N)nc3n([C@H]3CC[C@H](OCCO)CC3)c2=O)cn1 . Reported drug sensitivity score?
4.97 DSS

---

Test system: UT-SCC-24B
Test Description: relative IC50 (midpoint of the fitted curve; maximal inhibition may be below 50%); higher = less potent
Measurement Conditions: culture condition: on top of Matrigel; treatment time: 3 days
Everything with relative IC50 lower than 0.04 µM is not fulfilled; everything else, including exactly 0.04 µM, is fulfilled.

CC(=O)Nc1cccc(-n2c(=O)n(C3CC3)c(=O)c3c(Nc4ccc(I)cc4F)n(C)c(=O)c(C)c32)c1 ... not fulfilled
Cn1c(=O)n(-c2ccc(C(C)(C)C#N)cc2)c2c3cc(-c4cnc5ccccc5c4)ccc3ncc21 ... not fulfilled
CN(C)C/C=C/C(=O)Nc1cc2c(Nc3ccc(F)c(Cl)c3)ncnc2cc1O[C@H]1CCOC1 ... not fulfilled

Please check the record COc1ncc(-c2ccc3nccc(-c4ccnnc4)c3c2)cc1NS(=O)(=O)c1ccc(F)cc1F and state if its relative IC50 is at or above 0.04 µM.
not fulfilled

For COc1cc(F)c(F)c(Nc2ccc(I)cc2F)c1NS(=O)(=O)C1(C[C@H](O)CO)CC1 then?
fulfilled

Try COc1ccc(-c2cc3c(C)nc(N)nc3n([C@H]3CC[C@H](OCCO)CC3)c2=O)cn1 next.
fulfilled

Input Cc1c(CN2CCN(C(=O)[C@H](C)O)CC2)sc2c(N3CCOCC3)nc(-c3cnc(N)nc3)nc12
fulfilled

Same question for Cn1cnc2c(F)c(Nc3ccc(Br)cc3Cl)c(C(=O)NOCCO)cc21 please.
fulfilled

Item: O=C(NC[C@H](O)CO)c1ccncc1Nc1ccc(I)cc1F
fulfilled

Same read-out for C#Cc1cccc(Nc2ncnc3cc(OCCOC)c(OCCOC)cc23)c1 ?
fulfilled

Cn1cnc2c(F)c(Nc3ccc(Br)cc3F)c(C(=O)NOCCO)cc21 , same question.
fulfilled

And what about the molecule C=CC(=O)Nc1cc2c(Nc3ccc(F)c(Cl)c3)ncnc2cc1OCCCN1CCOCC1 ?
fulfilled

---

System: UT-SCC-73
Test Description: drug sensitivity score (DSS); higher = more sensitive; extreme values may be limits of the assay
Measurement Conditions: culture condition: embedded in Matrigel; treatment time: 3 days
Threshold rule: drug sensitivity score greater than or equal to 9 DSS is yes; below that, no.

Example entries begin here.
C=CC(=O)Nc1cc2c(Nc3ccc(F)c(Cl)c3)ncnc2cc1OCCCN1CCOCC1 [Canertinib] ... no
CO[C@H]1C[C@@H]2CC[C@@H](C)[C@@](O)(O2)C(=O)C(=O)N2CCCC[C@H]2C(=O)O[C@H]([C@H](C)C[C@@H]2CC[C@@H](O)[C@H](OC)C2)CC(=O)[C@H](C)/C=C(\C)[C@@H](O)[C@@H](OC)C(=O)[C@H](C)C[C@H](C)/C=C/C=C/C=C/1C [Sirolimus] ... yes

Now consider a different molecule.
Determine whether this molecule has drug sensitivity score no lower than 9 DSS: CN(C)C/C=C/C(=O)Nc1cc2c(Nc3ccc(F)c(Cl)c3)ncnc2cc1O[C@H]1CCOC1 [Afatinib]
no

---

# maximal % inhibition of viability values compiled below
Test system: UT-SCC-42B
Test Description: maximal % inhibition of viability relative to DMSO; higher = stronger effect
Measurement Conditions: culture condition: plastic 2D (no matrix); treatment time: 3 days
Expressed in %, but write only the number.

C#Cc1cccc(Nc2ncnc3cc(OCCOC)c(OCCOC)cc23)c1 ... 4.5
CO[C@H]1C[C@@H]2CC[C@@H](C)[C@@](O)(O2)C(=O)C(=O)N2CCCC[C@H]2C(=O)O[C@H]([C@H](C)C[C@@H]2CC[C@@H](OCCO)[C@H](OC)C2)CC(=O)[C@H](C)/C=C(\C)[C@@H](O)[C@@H](OC)C(=O)[C@H](C)C[C@H](C)/C=C/C=C/C=C/1C ... 12.6
CC(=O)Nc1cccc(-n2c(=O)n(C3CC3)c(=O)c3c(Nc4ccc(I)cc4F)n(C)c(=O)c(C)c32)c1 ... 28.8

Now examine the next entry.
May I ask what maximal % inhibition of viability has been recorded for COc1cc(F)c(F)c(Nc2ccc(I)cc2F)c1NS(=O)(=O)C1(C[C@H](O)CO)CC1 ?
47.5

---

Tested on: UT-SCC-14
Test Description: relative IC50 (midpoint of the fitted curve; maximal inhibition may be below 50%); higher = less potent
Measurement Conditions: culture condition: on top of Myogel; treatment time: 3 days
If the reported relative IC50 equals or exceeds 300 nM, assign criterion met. If not, assign criterion not met.

Examples with answers:
CO[C@H]1C[C@@H]2CC[C@@H](C)[C@@](O)(O2)C(=O)C(=O)N2CCCC[C@H]2C(=O)O[C@H]([C@H](C)C[C@@H]2CC[C@@H](OC(=O)C(C)(CO)CO)[C@H](OC)C2)CC(=O)[C@H](C)/C=C(\C)[C@@H](O)[C@@H](OC)C(=O)[C@H](C)C[C@H](C)/C=C/C=C/C=C/1C ... criterion not met
CN(C)C/C=C/C(=O)Nc1cc2c(Nc3ccc(F)c(Cl)c3)ncnc2cc1O[C@H]1CCOC1 ... criterion not met
COc1ccc(-c2cc3c(C)nc(N)nc3n([C@H]3CC[C@H](OCCO)CC3)c2=O)cn1 ... criterion met
C=CC(=O)Nc1cc2c(Nc3ccc(F)c(Cl)c3)ncnc2cc1OCCCN1CCOCC1 ... criterion met
Cn1c(=O)n(-c2ccc(C(C)(C)C#N)cc2)c2c3cc(-c4cnc5ccccc5c4)ccc3ncc21 ... criterion met
CO[C@H]1C[C@@H]2CC[C@@H](C)[C@@](O)(O2)C(=O)C(=O)N2CCCC[C@H]2C(=O)O[C@H]([C@H](C)C[C@@H]2CC[C@@H](OP(C)(C)=O)[C@H](OC)C2)CC(=O)[C@H](C)/C=C(\C)[C@@H](O)[C@@H](OC)C(=O)[C@H](C)C[C@H](C)/C=C/C=C/C=C/1C ... criterion not met
COc1ncc(-c2ccc3nccc(-c4ccnnc4)c3c2)cc1NS(=O)(=O)c1ccc(F)cc1F ... criterion not met
Cc1c(CN2CCN(C(=O)[C@H](C)O)CC2)sc2c(N3CCOCC3)nc(-c3cnc(N)nc3)nc12 ... criterion met
O=C(NC[C@H](O)CO)c1ccncc1Nc1ccc(I)cc1F ... criterion met
Cn1c(=O)c(F)c(Nc2ccc(I)cc2F)c2c(=O)n(C[C@@H](O)CO)cnc21 ... criterion not met

Pending molecule:
Reported relative IC50 reaches at least 300 nM for CO[C@H]1C[C@@H]2CC[C@@H](C)[C@@](O)(O2)C(=O)C(=O)N2CCCC[C@H]2C(=O)O[C@H]([C@H](C)C[C@@H]2CC[C@@H](O)[C@H](OC)C2)CC(=O)[C@H](C)/C=C(\C)[C@@H](O)[C@@H](OC)C(=O)[C@H](C)C[C@H](C)/C=C/C=C/C=C/1C ?
criterion not met
